- Test system: MDA-MB-231 breast
- assay_info: NCI tumour cell line growth inhibition, 48 h
Measured log10(TGI) accompanies every entry in the list below.
Log scale reminder: TGI in µM, then log10 taken.

compound: CC1OC(OC2C(O[C@@H]3C[C@@H]4CC[C@@H]5[C@H](CC[C@]6(C)C7C(C[C@@H]56)O[C@]5(CC[C@@H](C)CO5)[C@H]7C)[C@@]4(C)C[C@H]3O)OC(CO)C(O)C2O)C(O)C(O)C1O (stereo not given in full)
log10(TGI): 0.50
//
compound: O=C(CN1C(=O)c2ccccc2C1=O)C(O)CN1C(=O)c2ccccc2C1=O (stereo not given)
log10(TGI): 1.70
//
compound: N=C(N)c1ccc(-c2ccc(-c3cccs3)s2)nc1
log10(TGI): 0.53
//
compound: N#Cc1nc2cc(F)c(F)cc2nc1-c1ccc(Cl)cc1
log10(TGI): 0.72
//
compound: NCCCCN(Cc1nc2ccccc2[nH]1)[C@H]1CCCc2cccnc21
log10(TGI): 1.75

Form field: log10(TGI) recorded for CN(C)/C=C/c1nnnn1-c1ccc(I)cc1 with MDA-MB-231 breast (enter value) 1.61
